- Tested on: A673/TR/shEF
- PROTOCOL_TEXT: cell viability (LOESS-normalised, relative to median of negative controls) (log2 ratio); higher = more viable cells (less compound effect), active = hit call of the paper (over 3 MAD below the median)
- STATED_CONDITIONS: 2.5 µM; library screen: screen2; EWS-FLI1 expression: high (no doxycycline); treatment time: 72 h
Out of some 3,200 compounds screened, about 300 (9.4%) showed activity. The list comes from a sample in which actives are over-represented; it also holds close analogues and randomly drawn compounds.
PROPERTY: cell viability (log2)
Please reply with the value in numeric form only.

Examples from the recorded data:
[
  {
    "COMPOUND": "CO[C@H]1C=CC2CCN3CCC4=C(CC(=O)OC4)[C@]23C1 (stereo partly drawn)",
    "PROPERTY": "cell viability (log2)",
    "EXPERIMENTAL_RESULT": 0.0895
  },
  {
    "COMPOUND": "N[C@H](CO)C(=O)O",
    "PROPERTY": "cell viability (log2)",
    "EXPERIMENTAL_RESULT": 0.162
  },
  {
    "COMPOUND": "N[C@@H](CC(=O)O)C(=O)O",
    "PROPERTY": "cell viability (log2)",
    "EXPERIMENTAL_RESULT": 0.0127
  },
  {
    "COMPOUND": "CCCCC1C(=O)N(c2ccccc2)N(c2ccccc2)C1=O",
    "PROPERTY": "cell viability (log2)",
    "EXPERIMENTAL_RESULT": 0.084
  },
  {
    "COMPOUND": "CN(C)CCCN1c2ccccc2Sc2ccc(C(F)(F)F)cc21",
    "PROPERTY": "cell viability (log2)",
    "EXPERIMENTAL_RESULT": 0.181
  },
  {
    "COMPOUND": "NC(C(=O)O)c1cccc(O)c1 (stereo not drawn)",
    "PROPERTY": "cell viability (log2)",
    "EXPERIMENTAL_RESULT": 0.145
  }
]

Please look up its cell viability (log2): CC[C@H](C)C(=O)O[C@H]1CCC=C2C=C[C@H](C)[C@H](CC[C@@H]3C[C@@H](O)CC(=O)O3)[C@H]21
0.145

Can you look up the measured cell viability (log2) of Cc1cnc(C(=O)NCCc2ccc(S(=O)(=O)NC(=O)NC3CCCCC3)cc2)cn1 for me?
0.155
